As shown below, each of these compounds has a reported viability, T/C value.
System: CN0375-F725-PDC KRAS spheroid viability
Assay text: Anticancer human tumor CN0375-F725-PDC patient-derived colon carcinoma cell line growth inhibition [KRAS2]
Condition parameters: second compound 3.16 µM; first compound 0.01 µM; stronger effect = lower value; spheroids with HUVEC and MSC

- Compound: "CN(C)C/C=C/C(=O)Nc1cc2c(Nc3ccc(F)c(Cl)c3)ncnc2cc1O[C@H]1CCOC1 + CC1OCC2(CCN(c3cnc(Sc4ccnc(N)c4Cl)c(N)n3)CC2)C1N"
  viability, T/C [%]: 71
- Compound: "CC(=O)Nc1cccc(-n2c(=O)n(C3CC3)c(=O)c3c(Nc4ccc(I)cc4F)n(C)c(=O)c(C)c32)c1 + CNCc1ccccc1-c1csc(C(C)Nc2nc(C)nc3cc(OC)c(OC)cc23)c1"
  viability, T/C [%]: 0.23
- Compound: "CCN1CCN(Cc2ccc(Nc3ncc(F)c(-c4cc(F)c5nc(C)n(C(C)C)c5c4)n3)nc2)CC1 + C=CC(=O)N1CCN(c2nc(=O)n(-c3c(C)ccnc3C(C)C)c3nc(-c4c(O)cccc4F)c(F)cc23)C(C)C1"
  viability, T/C [%]: 107
- Compound: "CCN1CCN(Cc2ccc(Nc3ncc(F)c(-c4cc(F)c5nc(C)n(C(C)C)c5c4)n3)nc2)CC1 + CNCc1ccccc1-c1csc(C(C)Nc2nc(C)nc3cc(OC)c(OC)cc23)c1"
  viability, T/C [%]: 0.97
- Compound: "CC1COCCN1c1cc(-c2ccnn2C)c2ccnc(-c3ccn[nH]3)c2n1 (stereo unspecified) + C=CC(=O)N1CCN(c2nc(=O)n(-c3c(C)ccnc3C(C)C)c3nc(-c4c(O)cccc4F)c(F)cc23)C(C)C1"
  viability, T/C [%]: 101
- Compound: "Cn1ncnc1[C@H]1c2n[nH]c(=O)c3cc(F)cc(c23)N[C@@H]1c1ccc(F)cc1 + COc1cc2nc(C)nc(NC(C)c3cc(N)cc(C(F)(F)F)c3)c2cc1OC1CCOC1"
  viability, T/C [%]: 76.8
- Compound: "Cn1ncnc1[C@H]1c2n[nH]c(=O)c3cc(F)cc(c23)N[C@@H]1c1ccc(F)cc1 + CC1OCC2(CCN(c3cnc(Sc4ccnc(N)c4Cl)c(N)n3)CC2)C1N"
  viability, T/C [%]: 76.3
- Compound: "CC(=O)OC12COC1CC(O)C1(C)C(=O)C(O)C3=C(C)C(OC(=O)C(O)C(NC(=O)OC(C)(C)C)c4ccccc4)CC(O)(C(OC(=O)c4ccccc4)C21)C3(C)C (stereo unspecified) + CC1OCC2(CCN(c3cnc(Sc4ccnc(N)c4Cl)c(N)n3)CC2)C1N"
  viability, T/C [%]: 77.6
- Compound: "CC(C)n1nc(-c2ccc3oc(N)nc3c2)c2c(N)ncnc21 + CC1OCC2(CCN(c3cnc(Sc4ccnc(N)c4Cl)c(N)n3)CC2)C1N"
  viability, T/C [%]: 57.3
- Compound: "CC(=O)OC12COC1CC(O)C1(C)C(=O)C(O)C3=C(C)C(OC(=O)C(O)C(NC(=O)OC(C)(C)C)c4ccccc4)CC(O)(C(OC(=O)c4ccccc4)C21)C3(C)C (stereo unspecified) + COc1cc2nc(C)nc(NC(C)c3cc(N)cc(C(F)(F)F)c3)c2cc1OC1CCOC1"
  viability, T/C [%]: 77.7
- Compound: "CN(C)C/C=C/C(=O)Nc1cc2c(Nc3ccc(F)c(Cl)c3)ncnc2cc1O[C@H]1CCOC1 + CNCc1ccccc1-c1csc(C(C)Nc2nc(C)nc3cc(OC)c(OC)cc23)c1"
  viability, T/C [%]: 0.32

----------
System: CN0375-F725-PDC KRAS spheroid viability
Assay text: Anticancer human tumor CN0375-F725-PDC cell line growth inhibition [KRAS2];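 also: spheroids exposed to agents for 7 days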
Condition parameters: second compound 3.16 µM; first compound 0.000316 µM; stronger effect = lower value; spheroids with HUVEC and MSC

- Molecule: "Cn1ncnc1[C@H]1c2n[nH]c(=O)c3cc(F)cc(c23)N[C@@H]1c1ccc(F)cc1 + C=CC(=O)N1CCN(c2nc(OCC3CCCN3C)nc3c2CCN(c2cccc4cccc(C)c24)C3)CC1CC#N"
  Units text: "%"
  viability, T/C: 14.6
- Molecule: "CN(C)C/C=C/C(=O)Nc1cc2c(Nc3ccc(F)c(Cl)c3)ncnc2cc1O[C@H]1CCOC1 + CC1OCC2(CCN(c3cnc(Sc4ccnc(N)c4Cl)c(N)n3)CC2)C1N"
  Units text: "%"
  viability, T/C: 73.9
- Molecule: "CC(C)n1nc(-c2ccc3oc(N)nc3c2)c2c(N)ncnc21 + COc1cc2nc(C)nc(NC(C)c3cc(N)cc(C(F)(F)F)c3)c2cc1OC1CCOC1"
  Units text: "%"
  viability, T/C: 85.2
- Molecule: "CN(C)C/C=C/C(=O)Nc1cc2c(Nc3ccc(F)c(Cl)c3)ncnc2cc1O[C@H]1CCOC1 + C=CC(=O)N1CCN(c2nc(OCC3CCCN3C)nc3c2CCN(c2cccc4cccc(C)c24)C3)CC1CC#N"
  Units text: "%"
  viability, T/C: 30.9

----------
Tested on: CN0375-F725-PDC KRAS spheroid viability
Assay text: Anticancer human tumor CN0375-F725-PDC cell line growth inhibition [KRAS2];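 also: spheroids exposed to agents for 7 days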
Condition parameters: second compound 0.316 µM; first compound 0.316 µM; stronger effect = lower value; spheroids with HUVEC and MSC
One threshold, 80%, splits the recorded viability, T/C values: lower ones are Satisfied, equal or higher ones are Not satisfied.

- Molecule: "CCN1CCN(Cc2ccc(Nc3ncc(F)c(-c4cc(F)c5nc(C)n(C(C)C)c5c4)n3)nc2)CC1 + C=CC(=O)N1CCN(c2nc(=O)n(-c3c(C)ccnc3C(C)C)c3nc(-c4c(O)cccc4F)c(F)cc23)C(C)C1"
  Class name: "Not satisfied"
- Molecule: "CC1(C)CCC(CN2CCN(c3ccc(C(=O)NS(=O)(=O)c4ccc(NCC5CCOCC5)c([N+](=O)[O-])c4)c(Oc4cnc5[nH]ccc5c4)c3)CC2)=C(c2ccc(Cl)cc2)C1 + CNCc1ccccc1-c1csc(C(C)Nc2nc(C)nc3cc(OC)c(OC)cc23)c1"
  Class name: "Not satisfied"
- Molecule: "Cn1nccc1Nc1nccc(-c2cc3c(s2)C(C)(C)N(CCN2CCOCC2)C3=O)n1 + CNCc1ccccc1-c1csc(C(C)Nc2nc(C)nc3cc(OC)c(OC)cc23)c1"
  Class name: "Satisfied"
- Molecule: "CC1(C)CCC(CN2CCN(c3ccc(C(=O)NS(=O)(=O)c4ccc(NCC5CCOCC5)c([N+](=O)[O-])c4)c(Oc4cnc5[nH]ccc5c4)c3)CC2)=C(c2ccc(Cl)cc2)C1 + C=CC(=O)N1CCN(c2nc(=O)n(-c3c(C)ccnc3C(C)C)c3nc(-c4c(O)cccc4F)c(F)cc23)C(C)C1"
  Class name: "Not satisfied"
- Molecule: "O=C(c1cc(Cc2n[nH]c(=O)c3ccccc23)ccc1F)N1CCN(C(=O)C2CC2)CC1 + COc1cc2nc(C)nc(NC(C)c3cc(N)cc(C(F)(F)F)c3)c2cc1OC1CCOC1"
  Class name: "Not satisfied"
- Molecule: "CCN1CCN(Cc2ccc(Nc3ncc(F)c(-c4cc(F)c5nc(C)n(C(C)C)c5c4)n3)nc2)CC1 + CC1OCC2(CCN(c3cnc(Sc4ccnc(N)c4Cl)c(N)n3)CC2)C1N"
  Class name: "Not satisfied"
- Molecule: "CCNC(=O)CC1N=C(c2ccc(Cl)cc2)c2cc(OC)ccc2-n2c(C)nnc21 (stereo not given) + CNCc1ccccc1-c1csc(C(C)Nc2nc(C)nc3cc(OC)c(OC)cc23)c1"
  Class name: "Satisfied"
- Molecule: "CCN1CCN(Cc2ccc(Nc3ncc(F)c(-c4cc(F)c5nc(C)n(C(C)C)c5c4)n3)nc2)CC1 + C=CC(=O)N1CCN(c2nc(OCC3CCCN3C)nc3c2CCN(c2cccc4cccc(C)c24)C3)CC1CC#N"
  Class name: "Not satisfied"

----------
As shown below, each of these molecules has a reported pIC50 value.
Tested on: CN0375-F725-PDC KRAS spheroid viability
Assay text: Anticancer human tumor CN0375-F725-PDC cell line growth inhibition [KRAS2];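 also: spheroids exposed to agents for 7 days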
Condition parameters: curve of first compound; second compound 1 µM; spheroids with HUVEC and MSC
pIC50: −log10 of the molar value.
Experimental readout: pIC50

- Molecule: "CC(=O)Nc1cccc(-n2c(=O)n(C3CC3)c(=O)c3c(Nc4ccc(I)cc4F)n(C)c(=O)c(C)c32)c1 + C=CC(=O)N1CCN(c2nc(OCC3CCCN3C)nc3c2CCN(c2cccc4cccc(C)c24)C3)CC1CC#N"
  Experimental readout: "pIC50"
  Limit sign: "="
  Measurement: 8.79
- Molecule: "CC1(C)CCC(CN2CCN(c3ccc(C(=O)NS(=O)(=O)c4ccc(NCC5CCOCC5)c([N+](=O)[O-])c4)c(Oc4cnc5[nH]ccc5c4)c3)CC2)=C(c2ccc(Cl)cc2)C1 + CC1OCC2(CCN(c3cnc(Sc4ccnc(N)c4Cl)c(N)n3)CC2)C1N"
  Experimental readout: "pIC50"
  Limit sign: "="
  Measurement: 5.59
- Molecule: "COc1cc(Nc2ncc3c(n2)-c2ccc(Cl)cc2C(c2c(F)cccc2OC)=NC3)ccc1C(=O)O + CNCc1ccccc1-c1csc(C(C)Nc2nc(C)nc3cc(OC)c(OC)cc23)c1"
  Experimental readout: "pIC50"
  Limit sign: "<"
  Measurement: 5.00

Where these numbers come from: PubChem BioAssay AID1963860
